- assayText: qHTS assay to identify aromatase inhibitors - cell viability counter screen (AID 743084);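 note: cells stimulated with testosterone during compound exposure; nearly all actives have a fitted effect of over 55% in size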
- conditionLabel: MCF-7 aro ERE viability, CellTiter-Fluor, 24 h; series mostly up to 70.3 µM
Results filed as inconclusive are left out. Activity calls are given as the source filed them. Calls come from the whole dose curve; as a rule, active = well fitted cell-killing curve with a large enough effect in the repeat runs; inconclusive = weak or mixed curves, or effect the other way; inactive = no such curve, though single readings can be large or run the other way.
Outcomes: active, inactive

INSERT INTO results (molecule, label) VALUES
  ('CCC1(CCC(C)C)C(=O)NC(=O)NC1=O', 'inactive'),
  ('Clc1ccc(Cl)c(Cl)c1', 'inactive'),
  ('CN1CC[C@]23c4c5ccc(O)c4O[C@H]2[C@@H](O)C=C[C@H]3[C@H]1C5', 'inactive'),
  ('COc1ccc2c(c1OC)C(=O)O[C@H]2[C@@H]1c2cc3c(cc2CCN1C)OCO3', 'inactive'),
  ('CCCN(CCC)C(=O)Cc1c(-c2ccc(Cl)cc2)nc2ccc(Cl)cn12', 'inactive'),
  ('CNC(=O)Oc1cccc(N=CN(C)C)c1', 'inactive'),
  ('Nc1cccc2ccccc12', 'inactive'),
  ('Cc1ccc2c(C)cccc2c1', 'inactive'),
  ('CC[N+]1(CCOC(=O)C(O)(c2ccccc2)c2ccccc2)CCCCC1', 'inactive'),
  ('CCc1ccccc1N', 'inactive'),
  ('O=C1NC(=O)C(=O)C(=O)N1', 'inactive'),
  ('O=S(=O)(c1ccccc1)c1ccccc1', 'inactive'),
  ('O=C(O)COc1cc(Cl)c(Cl)cc1Cl', 'inactive'),
  ('O=C([O-])c1ccccn1.O=C([O-])c1ccccn1.O=C([O-])c1ccccn1.[Cr+3]', 'inactive'),
  ('CC(=O)OC(c1ccccc1)C(Cl)(Cl)Cl (stereo not drawn)', 'inactive'),
  ('C=CC(=O)NC(C)(C)CC(C)=O', 'inactive'),
  ('CCC(C)(C)O', 'inactive'),
  ('Cc1nc(N(C)C)nc(OC(=O)N(C)C)c1C', 'inactive'),
  ('COC(=O)C1(O)c2ccccc2-c2ccccc21', 'inactive'),
  ('CC1(C)CC(=O)CC(C)(C)N1[O]', 'inactive'),
  ('OCCCl', 'inactive'),
  ('O=C(Cc1ccccc1)c1ccccc1', 'inactive'),
  ('CCN(C(C)=O)c1cccc(-c2ccnc3c(C#N)cnn23)c1', 'inactive'),
  ('COC(=O)Cc1ccccc1', 'inactive'),
  ('SCc1ccccc1', 'inactive'),
  ('C=C(C)C(=O)OCCCCOC(=O)C(=C)C', 'inactive'),
  ('CCCN(CCOc1c(Cl)cc(Cl)cc1Cl)C(=O)n1ccnc1', 'inactive'),
  ('O=CC=O', 'inactive'),
  ('C=CCN1C[C@H](C)N([C@H](c2ccc(C(=O)N(CC)CC)cc2)c2cccc(OC)c2)C[C@H]1C', 'inactive'),
  ('Nc1ccccc1C(=O)OCCc1ccccc1', 'inactive'),
  ('O=C(CCl)CCl', 'active'),
  ('CC(C)OC(=O)Cc1ccccc1', 'inactive'),
  ('CCNC(=O)NC(=O)/C(C#N)=N/OC', 'inactive'),
  ('C[N+](C)(C)CC1CO1 (stereo not drawn)', 'inactive'),
  ('CCC(C)Cl (stereo not drawn)', 'inactive'),
  ('CN(C1CCCCC1)C1CCCCC1', 'inactive'),
  ('COc1cc(C[C@@H](C)N)c(OC)cc1Br', 'inactive'),
  ('N#CC(C#N)=Cc1ccc(O)c(O)c1', 'inactive'),
  ('c1ccc2c(c1)-c1cccc3cccc-2c13', 'inactive'),
  ('COc1cc(CC(C)N)c(OC)cc1Br (stereo not drawn)', 'inactive'),
  ('CCC[N+](CCC)(CCC)CCC', 'inactive'),
  ('O=C(O)C(F)(F)C(F)(F)C(F)(F)C(F)(F)C(F)(F)C(F)(F)C(F)(F)C(F)(F)F', 'inactive'),
  ('CCSCc1ccccc1OC(=O)NC', 'inactive'),
  ('N#CC(C#N)=C(C#N)C#N', 'inactive'),
  ('COc1ccccc1N1CCNCC1', 'inactive'),
  ('COc1ccc(C(O)(c2cncnc2)C2CC2)cc1 (stereo not drawn)', 'inactive'),
  ('Cc1cccc(C)c1NC1=NCCCS1', 'inactive'),
  ('CC(C)C1(C)N=C(c2ncccc2C(=O)O)NC1=O (stereo not drawn)', 'inactive'),
  ('COC1CC(=C(c2cccs2)c2cccs2)C[N+](C)(C)C1 (stereo not drawn)', 'inactive'),
  ('Cc1ccccc1', 'inactive'),
  ('O=C(N[C@H]1CN2CCC1CC2)c1ccc2c(c1)OCCO2', 'inactive'),
  ('COP(=O)(OC)OC(Br)C(Cl)(Cl)Br (stereo not drawn)', 'active'),
  ('O=P(OCC(Br)CBr)(OCC(Br)CBr)OCC(Br)CBr (stereo not drawn)', 'inactive'),
  ('O=C(O)C(Cl)(Cl)Br', 'inactive'),
  ('CC(Cl)C(=O)O (stereo not drawn)', 'inactive'),
  ('C[C@H]1[C@@H]2Cc3ccc(O)cc3[C@@]1(C)CCN2C', 'inactive'),
  ('C[C@H]1O[C@H](OC2[C@@H](O)[C@@H](O)C(O)[C@H](O)[C@H]2O)[C@@H](N)C[C@@H]1N=C(N)C(=O)O (stereo partly drawn)', 'inactive'),
  ('Oc1cccc(Cl)c1', 'inactive');
